B1: Retinoic acid receptor RXR-alpha, residues 132 to 208; numbered along this chain, P19793 (parent)
chain: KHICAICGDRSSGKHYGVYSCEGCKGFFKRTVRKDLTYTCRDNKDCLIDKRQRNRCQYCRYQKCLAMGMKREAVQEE

variants of: B1; test: abundance fitness (aPCA) (normalised: wild type 0, dead -1); higher = more abundant; growth selection in yeast, the domain comes from the species named; details: Homo sapiens
Entries get a class label from measured abundance fitness. See ranges: Low (below -0.1), Medium (-0.1 to below -0.02), High (-0.02 or more)

| sequence_string | assigned_category |
| --- | --- |
| KHICAICGDRSSGKHYGVYSCEGCKGFFKRTVRKDRTYTCRDNKDCLIDKRQRNRCQYCRYQKCLAMGMKREAVQEE | High |
| KHICAQCGDRSSGKHYGVYSCEGCKGFFKRTVRKDLTYTCRDNKDCLIDKRQRNRCQYCRYQKCLAMGMKREAVQEE | Low |
| KDICAICGDRSSGKHYGVYSCEGCKGFFKRTVRKDLTYTCRDNKDCLIDKRQRNRCQYCRYQKCLAMGMKREAVQEE | High |
| KHICAICGDRSSGKHYGVYSCEGCKGFFKRTVRKDLTYTCRDNKDCLNDKRQRNRCQYCRYQKCLAMGMKREAVQEE | High |
| KHICAICGDRSSGKHYNVYSCEGCKGFFKRTVRKDLTYTCRDNKDCLIDKRQRNRCQYCRYQKCLAMGMKREAVQEE | High |

Which class is correct for the following variant? KHICAICGDRSSGKHYGVYSCEGCKFFFKRTVRKDLTYTCRDNKDCLIDKRQRNRCQYCRYQKCLAMGMKREAVQEE
Low

Which class is correct for the following variant? KHICAICGDRSSGKHYGVYSCEGCKCFFKRTVRKDLTYTCRDNKDCLIDKRQRNRCQYCRYQKCLAMGMKREAVQEE
Medium

Which class is correct for the following variant? KHICAICGDRSKGKHYGVYSCEGCKGFFKRTVRKDLTYTCRDNKDCLIDKRQRNRCQYCRYQKCLAMGMKREAVQEE
High

Which class is correct for the following variant? KHICAICGDRSSGKHYGVYSCEGCKGFFKRTVRKDLTYTCRDHKDCLIDKRQRNRCQYCRYQKCLAMGMKREAVQEE
High

Which class is correct for the following variant? KHICAICGDRSSGKHYGVYSCEGSKGFFKRTVRKDLTYTCRDNKDCLIDKRQRNRCQYCRYQKCLAMGMKREAVQEE
Low

Sourced from the Human Domainome abundance scans (Beltran et al. 2025)
